measurement.description: qHTS RealTime-Glo MT Cell Viability Assay in HepG2 cells - 16 hour (AID 1224885); note: nearly all actives have a fitted effect of over 50% in size
condition: RealTime-Glo luminescence; series mostly up to 76.8 µM
Results filed as inconclusive are left out. Calls of active or inactive are those of the source. Calls come from the whole dose curve; as a rule, active = well fitted cell-killing curve with a large enough effect in the repeat runs; inconclusive = weak or mixed curves; inactive = flat fitted curve, though single readings scatter.
Respond with a class label; see active, inactive

Some solved entries appear below for comparison.
1. ClCC(Cl)CCl :: inactive
2. CN(C)c1ccccc1 :: inactive
3. CCCCC(C#N)(Cn1cncn1)c1ccc(Cl)cc1 (configuration not stated) :: inactive
4. ClC(Cl)(Cl)Br :: inactive

Could you kindly confirm the outcome this assay logged for CCOP(=S)(OCC)SCn1c(=O)oc2cc(Cl)ccc21 ?
inactive

Given CC1(C)C(C(=O)OC(C#N)c2cccc(Oc3ccccc3)c2)C1(C)C (configuration not stated) , state the outcome it received in this test.
inactive

Please state the recorded outcome for this compound: [CH3][Sn]([Cl])([Cl])[Cl]
inactive

I would be grateful if you could indicate the recorded call for C=CC(Cl)CCl (configuration not stated) .
inactive

Answer briefly: the call reported for O=P(OCCCl)(OCCCl)OCCCl in this assay.
inactive

Each compound tested received a call. Report the one for CC(C)COC(=O)c1ccccc1C(=O)OCC(C)C .
inactive

What is the recorded call for this compound in the test? CCC1(c2ccc(N)cc2)CCC(=O)NC1=O (configuration not stated)
inactive

Kindly provide the recorded test outcome for the following compound: CCC/C=N/O
inactive

What was the test verdict on CC(O)CN(CC(C)O)CC(C)O (configuration not stated) ?
inactive

What did the test return for c1ccc2c(c1)Nc1ccccc1S2 ?
inactive

// param item: CCCCOCC1CO1 (configuration not stated) ; yields the recorded call
inactive

Please let me know the test result on file for CC[n+]1c(-c2ccccc2)c2cc(N)ccc2c2ccc(N)cc21 .
inactive

Record request — test call for Clc1ccc(C(Cl)(Cl)Cl)cc1
inactive

Which result was noted for this compound in the test: Cc1cccc(N=Nc2ccc(N(C)C)cc2)c1
inactive

In this assay, the call recorded for Cc1ccc([N+](=O)[O-])cc1 was what?
inactive

In this assay, the call recorded for Cc1cc(Cl)ccc1N=CN(C)C was what?
inactive

// param item: OCCOCCO ; yields the recorded call
inactive

Tell me the recorded outcome of this test for CC(C)(c1ccc(OCC2CO2)cc1)c1ccc(OCC2CO2)cc1 (configuration not stated) .
inactive

Please share the test call associated with N#CC(c1ccccc1)c1ccccc1 .
inactive

What did the test return for O=NN(c1ccccc1)c1ccccc1 ?
inactive

What classification did Clc1cccc(C(Cl)(Cl)Cl)n1 end up with in this test?
inactive

Per the assay record, what outcome was assigned to CC(C)(C#N)N=NC(C)(C)C#N ?
inactive

Status in this test for Cn1c(-c2ccccc2)cc(-c2ccccc2)[n+]1C ?
inactive

Identify the outcome logged in this assay for the compound shown: CC1=C(C(=O)Nc2ccccc2)SCCO1
inactive

Name the outcome recorded for CCCCOCCOC(C)=O in the assay.
inactive

Status in this test for CCC(=O)Nc1ccc(Cl)c(Cl)c1 ?
inactive

Assay outcome for CCCCSP(=O)(SCCCC)SCCCC : what was it?
inactive

In this assay, the call recorded for c1ccc(C2CO2)cc1 (configuration not stated) was what?
inactive

In this assay, the call recorded for CCNCC was what?
inactive

====

study.system: Cytochrome P450 1A2 (Homo sapiens) (UniProt P05177)
Sequence (P05177 whole entry, looked up): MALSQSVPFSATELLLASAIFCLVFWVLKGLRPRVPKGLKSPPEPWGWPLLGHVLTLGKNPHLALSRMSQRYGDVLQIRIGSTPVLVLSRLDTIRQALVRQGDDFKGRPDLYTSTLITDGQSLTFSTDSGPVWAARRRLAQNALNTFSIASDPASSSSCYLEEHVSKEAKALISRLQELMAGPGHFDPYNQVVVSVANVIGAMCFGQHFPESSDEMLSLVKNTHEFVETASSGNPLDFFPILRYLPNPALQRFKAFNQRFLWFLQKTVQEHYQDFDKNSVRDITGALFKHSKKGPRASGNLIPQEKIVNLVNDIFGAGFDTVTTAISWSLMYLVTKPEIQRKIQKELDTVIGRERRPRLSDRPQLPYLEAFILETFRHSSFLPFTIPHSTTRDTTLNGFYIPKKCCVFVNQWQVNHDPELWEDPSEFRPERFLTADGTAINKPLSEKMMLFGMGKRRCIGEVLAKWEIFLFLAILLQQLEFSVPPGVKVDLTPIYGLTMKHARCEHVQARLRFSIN
measurement.description: Cytochrome P450 Family 1 Subfamily A Member 2 (CYP1A2) small molecule antagonists: luciferase reporter qHTS assay (AID 1671199); note: nearly all actives have a fitted effect of over 50% in size
condition: P450-Glo CYP1A2 enzyme, luciferin luminescence, 1 h; series mostly up to 115 µM
Inconclusive results are not listed. Activity calls are given as the source filed them. Calls come from the whole dose curve; as a rule, active = well fitted inhibition curve with a large enough effect in the repeat runs; inconclusive = weak or mixed curves; inactive = no such curve, though single readings can be large or run the other way.
Hello, when you answer, please use one of the following outcomes: 1 = active, 0 = inactive

1. N#Cc1cccnc1 :: 0
2. Brc1ccc(Br)cc1 :: 0
3. CCC[CH2][Sn]([Cl])([Cl])[CH2]CCC :: 0
4. Cn1c(-c2ccccc2)cc(-c2ccccc2)[n+]1C :: 0
5. CCNc1nc(Cl)nc(NC(C)(C)C#N)n1 :: 1
6. c1ccc(C2CO2)cc1 (stereo not given) :: 0
7. O=C(O)CF :: 0
8. ClCC(Cl)CCl :: 1
9. CCC[CH2][Sn]([Cl])([CH2]CCC)[CH2]CCC :: 1
10. CSc1nc(NC(C)C)nc(NC(C)C)n1 :: 1

Assay outcome for ClC(Cl)=C(Cl)C(Cl)=C(Cl)Cl : what was it?
0

What did this assay record as the result for ClC(Cl)(Cl)Br ?
0

Please let me know the test result on file for CC(C)(c1ccccc1)c1ccc(O)cc1 .
0

Test call, this compound: C=C(C)C#N
0

Assay outcome for C[C@]12CCC(=O)C=C1CC[C@@H]1[C@@H]2CC[C@@]2(C)[C@H]1CC[C@]2(C)O : what was it?
0

Reference for the values: PubChem BioAssay (Tox21)
